Exercise: state measured inhibition (INH) for each of the molecules provided.
# Tested on: Trichoderma hamatum
# Protocol Notes: Antifungal activity against Trichoderma hamatum assessed as radial growth at 3% after 24 hrs by poison food technique of Flack relative to control
# Type: functional
State the answer as a number, implicitly in %.

Data request, read-out inhibition (INH), for CCOC(=O)C1=C(C)NC(=O)NC1c1ccccc1 (stereo unspecified)
82.12

Data request, read-out inhibition (INH), for CCOC(=O)C1=C(C)NC(=O)NC1c1ccccc1O (stereo unspecified)
63.84

Data request, read-out inhibition (INH), for CCOC(=O)C1=C(C)NC(=S)NC1c1ccccc1O (stereo unspecified)
81.13

Data request, read-out inhibition (INH), for CCOC(=O)C1=C(C)NC(=S)NC1c1ccc(N(C)C)cc1 (stereo unspecified)
75

Data request, read-out inhibition (INH), for CCOC(=O)C1=C(C)NC(=O)NC1c1ccc(N(C)C)cc1 (stereo unspecified)
77.38

Data request, read-out inhibition (INH), for CCOC(=O)C1=C(C)NC(=S)NC1c1ccccc1 (stereo unspecified)
67.13

====

Exercise: state measured inhibition (INH) for each of the compounds provided.
# Tested on: Trichoderma hamatum
# Protocol Notes: Antifungal activity against Trichoderma hamatum assessed as radial growth at 7% after 48 hrs by poison food technique of Flack relative to control
# Assay type: functional
State the answer as a number, implicitly in %.

Trichoderma hamatum / inhibition (INH) / CCOC(=O)C1=C(C)NC(=O)NC1c1ccccc1 (stereo unspecified) : value?
100

Trichoderma hamatum / inhibition (INH) / CCOC(=O)C1=C(C)NC(=O)NC1c1ccc(N(C)C)cc1 (stereo unspecified) : value?
96.38

Trichoderma hamatum / inhibition (INH) / CCOC(=O)C1=C(C)NC(=S)NC1c1ccc(N(C)C)cc1 (stereo unspecified) : value?
100

Trichoderma hamatum / inhibition (INH) / CCOC(=O)C1=C(C)NC(=O)NC1c1ccccc1O (stereo unspecified) : value?
100

Trichoderma hamatum / inhibition (INH) / CCOC(=O)C1=C(C)NC(=S)NC1c1ccccc1O (stereo unspecified) : value?
100

Trichoderma hamatum / inhibition (INH) / CCOC(=O)C1=C(C)NC(=S)NC1c1ccccc1 (stereo unspecified) : value?
100

====

# Test system: Trichoderma hamatum
# Protocol Notes: Antifungal activity against Trichoderma hamatum assessed as radial growth at 0.5% after 48 hrs by poison food technique of Flack relative to control
# Assay type: functional
Test Readout: inhibition (INH) (%)
State the answer as a number, implicitly in %.

Data request, read-out inhibition (INH), for CCOC(=O)C1=C(C)NC(=O)NC1c1ccc(N(C)C)cc1 (stereo unspecified)
0

Data request, read-out inhibition (INH), for CCOC(=O)C1=C(C)NC(=S)NC1c1ccccc1 (stereo unspecified)
8.81

Data request, read-out inhibition (INH), for CCOC(=O)C1=C(C)NC(=S)NC1c1ccc(N(C)C)cc1 (stereo unspecified)
5.25

Data request, read-out inhibition (INH), for CCOC(=O)C1=C(C)NC(=O)NC1c1ccccc1 (stereo unspecified)
32.99

Data request, read-out inhibition (INH), for CCOC(=O)C1=C(C)NC(=O)NC1c1ccccc1O (stereo unspecified)
0

Data request, read-out inhibition (INH), for CCOC(=O)C1=C(C)NC(=S)NC1c1ccccc1O (stereo unspecified)
6.18

====

# Tested on: Aspergillus niger
# Protocol Notes: Antifungal activity against Aspergillus niger assessed as radial growth at 5% after 48 hrs by poison food technique of Flack relative to control
# Format: functional
Exercise: state measured inhibition (INH) for each of the compounds provided.
State the answer as a number, implicitly in %.

Data request, read-out inhibition (INH), for CCOC(=O)C1=C(C)NC(=S)NC1c1ccccc1 (stereo unspecified)
54.54

Data request, read-out inhibition (INH), for CCOC(=O)C1=C(C)NC(=S)NC1c1ccc(N(C)C)cc1 (stereo unspecified)
100

Data request, read-out inhibition (INH), for CCOC(=O)C1=C(C)NC(=O)NC1c1ccccc1O (stereo unspecified)
65.66

Data request, read-out inhibition (INH), for CCOC(=O)C1=C(C)NC(=O)NC1c1ccc(N(C)C)cc1 (stereo unspecified)
87.5

Data request, read-out inhibition (INH), for CCOC(=O)C1=C(C)NC(=O)NC1c1ccccc1 (stereo unspecified)
81.17

Data request, read-out inhibition (INH), for CCOC(=O)C1=C(C)NC(=S)NC1c1ccccc1O (stereo unspecified)
50

====

# System: Trichoderma koningii
# Protocol Notes: Antifungal activity against Trichoderma koningii assessed as radial growth at 5% after 48 hrs by poison food technique of Flack relative to control
# Type: functional
Test Readout: inhibition (INH) (%)
State the answer as a number, implicitly in %.

Data request, read-out inhibition (INH), for CCOC(=O)C1=C(C)NC(=S)NC1c1ccc(N(C)C)cc1 (stereo unspecified)
86.21

Data request, read-out inhibition (INH), for CCOC(=O)C1=C(C)NC(=O)NC1c1ccc(N(C)C)cc1 (stereo unspecified)
87.09

Data request, read-out inhibition (INH), for CCOC(=O)C1=C(C)NC(=O)NC1c1ccccc1O (stereo unspecified)
70.83

Data request, read-out inhibition (INH), for CCOC(=O)C1=C(C)NC(=S)NC1c1ccccc1 (stereo unspecified)
87.34

Data request, read-out inhibition (INH), for CCOC(=O)C1=C(C)NC(=S)NC1c1ccccc1O (stereo unspecified)
91.4

Data request, read-out inhibition (INH), for CCOC(=O)C1=C(C)NC(=O)NC1c1ccccc1 (stereo unspecified)
100

====

# Tested on: Trichoderma koningii
# Protocol Notes: Antifungal activity against Trichoderma koningii assessed as radial growth at 0.5% after 48 hrs by poison food technique of Flack relative to control
# Type: functional
Test Readout: inhibition (INH) (%)
State the answer as a number, implicitly in %.

Trichoderma koningii / inhibition (INH) / CCOC(=O)C1=C(C)NC(=S)NC1c1ccccc1 (stereo unspecified) : value?
0

Trichoderma koningii / inhibition (INH) / CCOC(=O)C1=C(C)NC(=O)NC1c1ccccc1O (stereo unspecified) : value?
0

Trichoderma koningii / inhibition (INH) / CCOC(=O)C1=C(C)NC(=S)NC1c1ccc(N(C)C)cc1 (stereo unspecified) : value?
0

Trichoderma koningii / inhibition (INH) / CCOC(=O)C1=C(C)NC(=S)NC1c1ccccc1O (stereo unspecified) : value?
0

Trichoderma koningii / inhibition (INH) / CCOC(=O)C1=C(C)NC(=O)NC1c1ccccc1 (stereo unspecified) : value?
18.25

Trichoderma koningii / inhibition (INH) / CCOC(=O)C1=C(C)NC(=O)NC1c1ccc(N(C)C)cc1 (stereo unspecified) : value?
9.67

====

# Test system: Trichoderma hamatum
# Protocol Notes: Antifungal activity against Trichoderma hamatum assessed as radial growth at 1% after 72 hrs by poison food technique of Flack relative to control
# Assay type: functional
Test Readout: inhibition (INH) (%)
State the answer as a number, implicitly in %.

Data request, read-out inhibition (INH), for CCOC(=O)C1=C(C)NC(=S)NC1c1ccccc1 (stereo unspecified)
0

Data request, read-out inhibition (INH), for CCOC(=O)C1=C(C)NC(=O)NC1c1ccccc1 (stereo unspecified)
12.34

Data request, read-out inhibition (INH), for CCOC(=O)C1=C(C)NC(=O)NC1c1ccccc1O (stereo unspecified)
15.84

Data request, read-out inhibition (INH), for CCOC(=O)C1=C(C)NC(=S)NC1c1ccc(N(C)C)cc1 (stereo unspecified)
13.9

Data request, read-out inhibition (INH), for CCOC(=O)C1=C(C)NC(=O)NC1c1ccc(N(C)C)cc1 (stereo unspecified)
0

Data request, read-out inhibition (INH), for CCOC(=O)C1=C(C)NC(=S)NC1c1ccccc1O (stereo unspecified)
38.22

====

# Test system: Trichoderma hamatum
# Protocol Notes: Antifungal activity against Trichoderma hamatum assessed as radial growth at 3% after 48 hrs by poison food technique of Flack relative to control
# Format: functional
Rule: inhibition (INH) of 70% or more gives label 1; anything lower gives label 0.

Given the entry CCOC(=O)C1=C(C)NC(=S)NC1c1ccccc1 (stereo unspecified) , answer whether its inhibition (INH) meets or surpasses 70%.
label 0

Given the entry CCOC(=O)C1=C(C)NC(=S)NC1c1ccccc1O (stereo unspecified) , answer whether its inhibition (INH) meets or surpasses 70%.
label 1

Given the entry CCOC(=O)C1=C(C)NC(=O)NC1c1ccc(N(C)C)cc1 (stereo unspecified) , answer whether its inhibition (INH) meets or surpasses 70%.
label 1

Given the entry CCOC(=O)C1=C(C)NC(=S)NC1c1ccc(N(C)C)cc1 (stereo unspecified) , answer whether its inhibition (INH) meets or surpasses 70%.
label 1

====

Exercise: state measured inhibition (INH) for each of the compounds provided.
# Tested on: Trichoderma koningii
# Protocol Notes: Antifungal activity against Trichoderma koningii assessed as radial growth at 1% after 72 hrs by poison food technique of Flack relative to control
# Assay type: functional
Note: state the figure and append the unit.

Data request, read-out inhibition (INH), for CCOC(=O)C1=C(C)NC(=O)NC1c1ccccc1O (stereo unspecified)
0.67%

Data request, read-out inhibition (INH), for CCOC(=O)C1=C(C)NC(=O)NC1c1ccc(N(C)C)cc1 (stereo unspecified)
48.29%

Data request, read-out inhibition (INH), for CCOC(=O)C1=C(C)NC(=S)NC1c1ccc(N(C)C)cc1 (stereo unspecified)
0%

Data request, read-out inhibition (INH), for CCOC(=O)C1=C(C)NC(=O)NC1c1ccccc1 (stereo unspecified)
10.86%

Data request, read-out inhibition (INH), for CCOC(=O)C1=C(C)NC(=S)NC1c1ccccc1O (stereo unspecified)
14.37%

Data request, read-out inhibition (INH), for CCOC(=O)C1=C(C)NC(=S)NC1c1ccccc1 (stereo unspecified)
0%
